Where do these numbers come from? They come from the supplement of paper PMC10567573.

B1: TBC1D10A (parent)
chain: WCLVQICEKYLPGYYSEKLEAIQL

Variants of: B1
assay_comment: protein stability index of a GFP-peptide fusion (GPS, HEK-293T) (PSI 1-6); higher = more stable;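 also: lentivirally expressed fusions sorted by FACS into six bins by GFP to DsRed ratio, PSI derived from sequencing read proportions per bin multiplied by bin number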
stated_conditions: c terminus: a fixed tail appended
Give measured protein stability index for each item. Keep answers brief.
Field format: numeric only.

Problem: // lookup protein stability index for P12K
Solution: 2.12

Problem: Proceed to I6K
Solution: 2.41

Problem: Repeat for the following variant: E20D
Solution: 1.79

Problem: # iterate: L19P
Solution: 1.99

Problem: What about this variant? I22N
Solution: 1.3

Problem: Please do the same for K18Q as well.
Solution: 1.91

Problem: Q5V , same question.
Solution: 4.85

Problem: Entry to check: C7R
Solution: 3.73

Problem: Note, next up: Y10W
Solution: 4.21

Problem: Next variant: G13M
Solution: 3.53

Problem: Check L24T too.
Solution: 2.55

Problem: Same read-out for L24D ?
Solution: 2.69

Problem: Please do the same for P12S as well.
Solution: 3.84

Problem: Could you do the same for E8K , please?
Solution: 4.48

Problem: Entry V4N please
Solution: 1.57

Problem: Also A21Q , if possible.
Solution: 2.37

Problem: Also, G13I please.
Solution: 1.54

Problem: Next up: L24K
Solution: 3.14

Problem: Lookup Q23V
Solution: 2.11

Problem: Would you mind doing L3M as well?
Solution: 2.45

Problem: Cool, now E20R
Solution: 1.8

Problem: How about this variant: G13C
Solution: 1.5

Problem: Again, but for V4I
Solution: 2.23

Problem: And I22K ?
Solution: 2.86

Problem: // same read-out, input: L3T
Solution: 4.55

Problem: What do you get for Y10Q ?
Solution: 2.39

Problem: Now try K18W .
Solution: 3.09

Problem: Same question, C2E this time
Solution: 1.01

Problem: // next record L11D
Solution: 2.91

Problem: And the next one, Y10G ?
Solution: 4.89

Problem: Another variant to look at: A21G
Solution: 2.02

Problem: Record: Q23M
Solution: 2.93

Problem: Please do the same for L24H as well.
Solution: 1.14

Problem: Next up: G13A
Solution: 3.16

Problem: Next: Q23I
Solution: 3.3

Problem: Try this variant next: L24F
Solution: 3.24

Problem: Entry Y14V please
Solution: 3.94

Problem: For Q5K then?
Solution: 1.71

Problem: Can you handle I6C next?
Solution: 3.08

Problem: Follow-up item: K9C
Solution: 4.4

Problem: Can you check E17V next?
Solution: 3.99

Problem: Next variant up: G13E
Solution: 3.01

Problem: Also, L24A please.
Solution: 3

Problem: What do we get for S16P ?
Solution: 2.1

Problem: Also K9H ?
Solution: 2.65

Problem: Repeat for the following variant: A21C
Solution: 4.65
